# tested system: His-tagged KRAS G12D protein (Homo sapiens, UniProt P01116, G12D)
# Sequence (P01116 1-188 isoform P01116-2 G12D): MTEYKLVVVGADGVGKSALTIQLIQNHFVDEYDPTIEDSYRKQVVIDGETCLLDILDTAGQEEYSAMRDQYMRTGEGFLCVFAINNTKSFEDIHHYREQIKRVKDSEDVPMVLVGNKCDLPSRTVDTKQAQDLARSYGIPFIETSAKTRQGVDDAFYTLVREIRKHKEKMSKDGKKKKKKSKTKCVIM
# method notes: KRAS G12D TR-FRET assay (binding)
# condition notes: biotinylated KRPep-2d substrate, GDP in assay buffer
observation type: IC50 (nM)
Response body: numeric value in nM, unit text excluded.

Examples with their reported IC50 follow.
molecule: CCc1cccc2cc(O)cc(-c3ncc4c(N5CC6COC(C6)C5)nc(OC[C@@]56CCCN5C[C@H](F)C6)nc4c3F)c12 (stereo partly drawn)
tested system: His-tagged KRAS G12D protein (Homo sapiens, UniProt P01116, G12D)
unit abbrev: nM
readout number: 8
--
molecule: Oc1cc(Cl)c(C2CC2)c(-c2ncc3c(N4CCCOCC4)nc(OCC4(CN5CCOCC5)CC4)nc3c2F)c1
tested system: His-tagged KRAS G12D protein (Homo sapiens, UniProt P01116, G12D)
unit abbrev: nM
readout number: 11
--
molecule: CCc1c(F)ccc2cc(O)cc(-c3ncc4c(N5CCOCC(O)(C6CC6)C5)nc(OC[C@@]56CCCN5C[C@H](F)C6)nc4c3F)c12 (stereo partly drawn)
tested system: His-tagged KRAS G12D protein (Homo sapiens, UniProt P01116, G12D)
unit abbrev: nM
readout number: 4

Exercise: IC50 for CCc1c(F)ccc2cc(O)cc(-c3ncc4c(N5CC6CC(C#N)C(C5)O6)nc(OC[C@@]56CCCN5C[C@H](F)C6)nc4c3F)c12 (single isomer, unassigned) ?
Solution: 6

Exercise: IC50 for CCc1c(F)ccc2cc(O)cc(-c3ncc4c(N5CCCOCC5)nc(OCC5(C#N)CCN(C)C5)nc4c3F)c12 (stereo not drawn) ?
Solution: 27

Exercise: IC50 for CCc1c(F)ccc2cc(O)cc(-c3ncc4c(N5CCCOCC5)nc(OCC5(C)CCC(=O)N5)nc4c3F)c12 (stereo not drawn) ?
Solution: 37
